Entries and their measured melting point follow.

CC(C)n1nc(-c2nc(C(N)=O)c(N)nc2-c2ccccc2Br)ccc1=O :: 132 to 135 °C
CCOC(=O)COC1CCC2C3CCC4N(C)C(=O)CCC4(C)C3CCC12C (stereo unspecified) :: 39 to 41 °C

Enquiry: In one line, give reported melting point of the entry CC1(CC(=O)O)OCCc2nc(-c3ccccc3)sc21 (stereo unspecified) .
Return: 143 to 145 °C

Enquiry: In one line, give reported melting point of the entry CN1CCC(=C2c3ccccc3CCn3cc(-c4ccccc4)nc32)CC1 .
Return: 172 °C

Enquiry: In one line, give reported melting point of the entry O=C1c2ccccc2C(O)N1CCCCCO[N+](=O)[O-] (stereo unspecified) .
Return: 70 to 72 °C

Enquiry: In one line, give reported melting point of the entry O=C(NCCCO)c1cccc(Nc2nccc(-c3ccnc(NCCCO)c3)n2)c1 .
Return: 153 to 154 °C

Enquiry: In one line, give reported melting point of the entry O=C(C(Cl)Cl)N1CCOC1C(Cl)Cl (stereo unspecified) .
Return: 80 °C

Enquiry: In one line, give reported melting point of the entry CCOC(=O)C1=NNC2C(=O)N(Cc3ccccc3)C(=O)C12 (stereo unspecified) .
Return: 100 to 101 °C

Enquiry: In one line, give reported melting point of the entry CCOC(=O)c1c[nH]c2ccc(Cc3ccccc3)cc2c1=O .
Return: 265 to 270 °C

Enquiry: In one line, give reported melting point of the entry COC(=O)C(C)(C)Oc1ccc2c(=O)n(CC(C)C)c(CNC(=O)OC(C)(C)C)c(-c3ccccc3)c2c1 .
Return: 207 to 209 °C

Enquiry: In one line, give reported melting point of the entry O=c1c2cccc(Cl)c2nc2n1CCCO2 .
Return: 207 to 208 °C

Enquiry: In one line, give reported melting point of the entry O=C(O)c1cc2ccsc2cn1 .
Return: 246 °C

Enquiry: In one line, give reported melting point of the entry COc1cc(OC)c2c(=O)[nH]c(-c3cc(C)c(OCC(=O)O)c(C)c3)nc2c1 .
Return: 270 to 272 °C
